Hey, just so you know, these numbers are from a melting point compilation (Tetko et al.).

compounds and their reported melting point

Please review the following examples before continuing.
compound	recordedEndpoint	result
CC(C)[C@H](NC(=O)N1CCN(Cc2ccccc2)CC1)C(=O)N[C@@H](Cc1ccccc1)[C@@H](O)[C@H](O)[C@H](Cc1ccccc1)NC(=O)[C@@H](NC(=O)N1CCN(Cc2ccccc2)CC1)C(C)C	melting point	178 to 179 °C
O=S(=O)(Oc1ccc2c(OS(=O)(=O)c3ccc(OCc4ccccc4)cc3)c3cc(OS(=O)(=O)c4ccc(OCc5ccccc5)cc4)ccc3cc2c1)c1ccc(OCc2ccccc2)cc1	melting point	164 to 166 °C
CCCCCCCCCCCCCCCCCCOC(=O)CSCc1cc(CSCC(=O)OCCCCCCCCCCCCCCCCCC)c(O)c(CSCC(=O)OCCCCCCCCCCCCCCCCCC)c1	melting point	70 to 71 °C

### Prompt What value of measured melting point is listed for [C-]#[N+]C1Cc2ccccc2C(=C)c2ccccc21 (stereo unspecified) ?
### Response 96 to 98 °C

### Prompt What does the data say about its melting point? Entry: COc1cc(OC)c(/C=C/C(c2ccc(OC)c(NCCC(=O)O)c2)S(=O)(=O)C(/C=C/c2c(OC)cc(OC)cc2OC)c2ccc(OC)c(NCCC(=O)O)c2)c(OC)c1 (stereo unspecified)
### Response 156 to 158 °C

### Prompt What value of measured melting point is listed for `CCCCCCCCCCCCCCCCCCOc1cc(OCCCCc2ccc3cc(OCc4ccccc4)c(OCc4ccccc4)cc3c2)cc(N(CC(=O)O)CC(=O)O)c1` ?
### Response 83 to 86 °C

---

Items are presented alongside their recorded melting point.

Before answering, review these 3 worked examples.
molecule	melting point
CC(C)(C)c1cc2c(c(C(C)(C)C)c1)OP(OP1Oc3c(cc(C(C)(C)C)cc3C(C)(C)C)Cc3cc(C(C)(C)C)cc(C(C)(C)C)c3O1)Oc1c(cc(C(C)(C)C)cc1C(C)(C)C)C2	249 to 252 °C
CC(C)(C)c1cc(CCC(=O)OCC(COCC(COC(=O)CCc2cc(C(C)(C)C)c(O)c(C(C)(C)C)c2)OC(=O)CCc2cc(C(C)(C)C)c(O)c(C(C)(C)C)c2)OC(=O)CCc2cc(C(C)(C)C)c(O)c(C(C)(C)C)c2)cc(C(C)(C)C)c1O (centres undefined)	57 °C
FC(F)(F)C(F)(F)C(F)(F)C(F)(F)C(F)(F)C(F)(F)C(F)(F)C(F)(F)C(F)(F)C(F)(F)CC[Si](Br)(CCC(F)(F)C(F)(F)C(F)(F)C(F)(F)C(F)(F)C(F)(F)C(F)(F)C(F)(F)C(F)(F)C(F)(F)F)CCC(F)(F)C(F)(F)C(F)(F)C(F)(F)C(F)(F)C(F)(F)C(F)(F)C(F)(F)C(F)(F)C(F)(F)F	80 to 81 °C

Now for a further molecule.
### Prompt Please look up its melting point: CCc1cn(C2OC(CNC(=O)C(C)Oc3cc(OC)c(Br)cc3Br)C(OC(=O)C(NC(=O)OC(C)(C)C)C(C)C)C2F)c(=O)[nH]c1=O (centres undefined)
### Response 101 to 111 °C

---

Reported melting point values are given for each entry in this list.

// worked examples, melting point included
compound	melting point
CCCCCCCCOc1ncc(-c2ccc(C(OC(c3ccc(-c4cnc(OCCCCCCCC)nc4)cc3)C3COC4(CCCCC4)O3)C3COC4(CCCCC4)O3)cc2)cn1 (stereo unspecified)	93.4 °C
CC(C)CCCC(C)C1CCC2C3CC=C4CC(N(CCCNC(=O)CCNC(=O)CCCCCNc5ccc([N+](=O)[O-])c6nonc56)S(=O)(=O)c5ccccc5[N+](=O)[O-])CCC4(C)C3CCC12C (stereo unspecified)	86 to 89 °C
CCCCCCCCCCCCCCCC(=O)C(O)C(O)(C(=O)c1cccc(NC(=O)C(CSC(C)=O)Cc2ccccc2)c1)C(O)C(=O)CCCCCCCCCCCCCCC (stereo unspecified)	65 to 67 °C
COC(=O)COC1C(NC(C)=O)C(OCc2ccccc2)OC(COCc2ccccc2)C1OC1(N)OC(COCc2ccccc2)C(OCc2ccccc2)C(OCc2ccccc2)C1C(=O)OCC(Cl)(Cl)Cl (stereo unspecified)	176 to 178 °C
CNC(=O)OC(COc1ccc(C(C)(C)c2ccc(OCC(CN3C(=O)NC4(CC(C)(C)NC(C)(C)C4)C3=O)OC(=O)NC)cc2)cc1)CN1C(=O)NC2(CC(C)(C)NC(C)(C)C2)C1=O (stereo unspecified)	238 to 242 °C
CCC(Cc1c(I)cc(I)c(NC(=O)CN2CCN(CC(=O)O)CCN(CC(=O)O)CCN(CC(=O)O)CC2)c1I)C(=O)O (stereo unspecified)	230 °C
O=C1c2cc(Sc3ccc(Cl)cc3)c(Sc3ccc(Cl)cc3)cc2C(=O)c2c1c(O)c1cc(Sc3ccc(Cl)cc3)c(Sc3ccc(Cl)cc3)cc1c2O	> 300 °C
COc1cc(C(=O)O)ccc1Cc1cn(C(C)=O)c2ccc(NC(=O)CC3CCCC3)cc12	245 to 247 °C

### Prompt # lookup: melting point of CC(C)CCCC(C)C1CCC2C3CC=C4CC(N(CCCNC(=O)CCNC(=O)CCNC(=O)CCCCCNc5ccc([N+](=O)[O-])cc5[N+](=O)[O-])S(=O)(=O)c5ccccc5[N+](=O)[O-])CCC4(C)C3CCC12C (stereo unspecified)
### Response 106 to 108 °C

### Prompt Quick one: melting point of `CC(=O)c1ccc(-n2c(-c3sc(Nc4ccc(Cl)cc4)nc3C)nc3ccccc3c2=O)cc1` ?
### Response 209 to 210 °C

### Prompt Name the recorded melting point for `CCCCN(c1nc(N(CCCC)C2CC(C)(C)N(OCC(C)(C)O)C(C)(C)C2)nc(N(CCCC)C2CC(C)(C)N(OCC(C)(C)O)C(C)(C)C2)n1)C1CC(C)(C)N(OCC(C)(C)O)C(C)(C)C1` .
### Response 172 to 176 °C
